# credit: ChEMBL document CHEMBL4689842

System: Fibroblast
protocol description: Multiplex assay against human fibroblast
Format: toxicity, cell-based
protocol conditions: 48 h, 1 µM, compound concentration 1 uM, replicate 1
compounds and their reported Population Hoechst High Intensity Objects (%)
observation type: Population Hoechst High Intensity Objects (%)

compound	unit tag	endpoint result
COc1ccccc1CN[C@H]1C2CCN(CC2)[C@H]1C(c1ccccc1)c1ccccc1 [CP-96345]	%	14
O=C(c1cc2c(cc1F)OC(c1ccc(F)cc1)(c1ccc(Cl)cc1Cl)O2)N1CCOCC1 (stereo not given)	%	11
Cl.O=C(O)c1cc(-c2ccc(C3CCNCC3)cc2)c2ccc(-c3ccc(C(F)(F)F)cc3)cc2c1	%	20
COc1cc2ncn(-c3cc(OCc4ccccc4C(F)(F)F)c(C(N)=O)s3)c2cc1OC [GW843682X]	%	18
CN1CCN(Cc2ccc(Nc3ncc(Cl)c(Nc4ccccc4S(=O)(=O)N(C)C)n3)cc2)CC1 [DUBERMATINIB]	%	10
CCCSc1nc(N[C@@H]2C[C@H]2c2ccc(F)c(F)c2)c2nnn([C@@H]3C[C@H](OCCO)[C@@H](O)[C@H]3O)c2n1 [TICAGRELOR]	%	9
Cc1ccccc1C(c1ccccc1C)N1C2CCC1CC(O)(c1ccccc1)C2 (stereo not given)	%	16
Cc1ccc2c(c1)c1c(n2CCc2ccc(C)nc2)CCN(C)C1 [LATREPIRDINE]	%	23
C[C@]12CC[C@@H]3c4ccc(O)cc4CC[C@H]3[C@@H]1CC[C@@H]2O [ESTRADIOL]	%	24
CC(C)c1noc(N2CCC(COc3ccc(-c4ccc(S(C)(=O)=O)cc4)nc3)CC2)n1 [GSK-1292263]	%	12
CC1=C(C(=O)Nc2cc3cn[nH]c3cc2F)C(c2ccc(C(F)(F)F)cc2)CC(=O)N1 (stereo not given)	%	11
CCc1ccc(OCc2ccccc2C(=O)Nc2ccc3nc(C)cc(N)c3c2)cc1.Cl	%	20
COc1cc(Nc2nccc(-c3cnn4nc(OC)ccc34)n2)cc(C(F)(F)F)c1	%	11
COC(=O)C1=C(C)NC(C)=C(C(=O)OCCCN2CCC(c3ccccc3)(c3ccccc3)CC2)[C@H]1c1cccc([N+](=O)[O-])c1 [NIGULDIPINE]	%	11
Cc1ccc(C)c(Oc2ccncc2C(=O)N2CCN(C3CC3)c3ccccc32)c1	%	11
CCc1nn(CCCN2CCN(c3cccc(Cl)c3)CC2)c(=O)n1CCOc1ccccc1.Cl [NEFAZODONE HYDROCHLORIDE]	%	19
CC(C)NC(=O)N1CC[C@H](NC2=Nc3cc(F)ccc3N(CC(F)F)c3ccc(Cl)cc32)C1	%	12
CC(C)Oc1ccccc1C(=O)Nc1ccccc1C(=O)Nc1cccc(S(=O)(=O)C(F)(F)F)c1	%	14
O=c1cc(N2CCOCC2)oc2c(-c3cccc4c3sc3ccccc34)cccc12	%	11
CC(C)(C)NC[C@H](O)COc1nsnc1N1CCOCC1 [TIMOLOL]	%	10
Cc1cccc(CN2CCN(C(c3ccccc3)c3ccc(Cl)cc3)CC2)c1.Cl.Cl (stereo not given)	%	18
Cc1c[nH]c2nccc(Oc3c(F)cc(Nc4cc(Cl)nc(N)n4)cc3F)c12 [BAY-549]	%	14
COc1ccc(-c2ccc3ncc4c(c3c2)n(-c2ccc(N3CCNCC3)c(C(F)(F)F)c2)c(=O)n4C)cn1.O=C(O)/C=C\C(=O)O [BGT-226]	%	38
CNC(=O)Nc1ccc(-c2nc(N3CC4CCC(C3)O4)c3cnn(C4CCC5(CC4)OCCO5)c3n2)cc1	%	19
CC(C)OC(=O)N1CCC(Oc2ncnc3c2cnn3-c2ccc(S(C)(=O)=O)cc2F)CC1	%	25

* * *

Test system: Fibroblast
protocol description: Multiplex assay against human fibroblast
Format: toxicity, cell-based
protocol conditions: 12 h, 10 µM, compound concentration 10 uM, replicate 2
observation type: Population Membrane Permeable-Phenotype (%)

compound	experimental system	endpoint result
COC(=O)C1=C(C)NC(C)=C(C(=O)OCCCN2CCC(c3ccccc3)(c3ccccc3)CC2)[C@H]1c1cccc([N+](=O)[O-])c1	Fibroblast	100
CC(C)c1noc(N2CCC(COc3ccc(-c4ccc(S(C)(=O)=O)cc4)nc3)CC2)n1	Fibroblast	3
CCc1ccc(OCc2ccccc2C(=O)Nc2ccc3nc(C)cc(N)c3c2)cc1.Cl	Fibroblast	100
CNC(=O)Nc1ccc(-c2nc(N3CC4CCC(C3)O4)c3cnn(C4CCC5(CC4)OCCO5)c3n2)cc1	Fibroblast	36
COc1cc2ncn(-c3cc(OCc4ccccc4C(F)(F)F)c(C(N)=O)s3)c2cc1OC [GW843682X]	Fibroblast	25
COc1ccccc1CN[C@H]1C2CCN(CC2)[C@H]1C(c1ccccc1)c1ccccc1	Fibroblast	1
CC(C)(C)NC[C@H](O)COc1nsnc1N1CCOCC1	Fibroblast	4
O=c1cc(N2CCOCC2)oc2c(-c3cccc4c3sc3ccccc34)cccc12	Fibroblast	23
CC1=C(C(=O)Nc2cc3cn[nH]c3cc2F)C(c2ccc(C(F)(F)F)cc2)CC(=O)N1 (stereo not given)	Fibroblast	5
CN1CCN(Cc2ccc(Nc3ncc(Cl)c(Nc4ccccc4S(=O)(=O)N(C)C)n3)cc2)CC1	Fibroblast	28
COc1cc(Nc2nccc(-c3cnn4nc(OC)ccc34)n2)cc(C(F)(F)F)c1	Fibroblast	3
C=CC(=O)Nc1cccc(Oc2nc(Nc3ccc(N4CCN(C)CC4)cc3OC)ncc2Cl)c1	Fibroblast	18
CC(C)OC(=O)N1CCC(Oc2ncnc3c2cnn3-c2ccc(S(C)(=O)=O)cc2F)CC1	Fibroblast	0
C[C@]12CC[C@@H]3c4ccc(O)cc4CC[C@H]3[C@@H]1CC[C@@H]2O	Fibroblast	4
CC(C)NC(=O)N1CC[C@H](NC2=Nc3cc(F)ccc3N(CC(F)F)c3ccc(Cl)cc32)C1	Fibroblast	13
O=C(c1cc2c(cc1F)OC(c1ccc(F)cc1)(c1ccc(Cl)cc1Cl)O2)N1CCOCC1 (stereo not given)	Fibroblast	47
C=CC(=O)Nc1cccc(Sc2nc(Nc3ccc(N4CCN(C)CC4)cc3)ncc2Cl)c1	Fibroblast	7
Cl.O=C(O)c1cc(-c2ccc(C3CCNCC3)cc2)c2ccc(-c3ccc(C(F)(F)F)cc3)cc2c1	Fibroblast	10
C=CC(=O)Nc1ccc2[nH]c(=O)n(C3CCN(Cc4ccc(-c5nc6cc[nH]c(=O)c6cc5-c5ccccc5)cc4)CC3)c2c1	Fibroblast	25
CC(C)Oc1ccccc1C(=O)Nc1ccccc1C(=O)Nc1cccc(S(=O)(=O)C(F)(F)F)c1	Fibroblast	97
CCCSc1nc(N[C@@H]2C[C@H]2c2ccc(F)c(F)c2)c2nnn([C@@H]3C[C@H](OCCO)[C@@H](O)[C@H]3O)c2n1	Fibroblast	43
Cc1ccc2c(c1)c1c(n2CCc2ccc(C)nc2)CCN(C)C1 [LATREPIRDINE]	Fibroblast	42
Cc1nc(N2CC[C@H](O)C2)ncc1-c1cc(C(F)(F)F)cc2[nH]ncc12	Fibroblast	15
COc1ccc(-c2ccc3ncc4c(c3c2)n(-c2ccc(N3CCNCC3)c(C(F)(F)F)c2)c(=O)n4C)cn1.O=C(O)/C=C\C(=O)O	Fibroblast	24
CNC(=O)Nc1ccc2c(c1)[C@@]1(CC2)OC(=O)N(CC(=O)N(Cc2ccc(F)cc2)[C@@H](C)C(F)(F)F)C1=O	Fibroblast	15
CCc1nn(CCCN2CCN(c3cccc(Cl)c3)CC2)c(=O)n1CCOc1ccccc1.Cl [NEFAZODONE HYDROCHLORIDE]	Fibroblast	60
O=c1[nH]c2ccccc2n1C1CCN(Cc2ccc(-c3[nH]c4cc5ncnc5cc4nc3-c3ccccc3)cc2)CC1	Fibroblast	27
Cc1cccc(CN2CCN(C(c3ccccc3)c3ccc(Cl)cc3)CC2)c1.Cl.Cl (stereo not given)	Fibroblast	6
CC(C)CC(=O)Nc1[nH]nc2c1CN(C(=O)C1CCN(C)CC1)C2(C)C	Fibroblast	20
Cc1c[nH]c2nccc(Oc3c(F)cc(Nc4cc(Cl)nc(N)n4)cc3F)c12	Fibroblast	7

* * *

Tested on: U2OS
protocol description: Multiplex assay against U2OS
Format: toxicity, cell-based
protocol conditions: human, 12 h, 10 µM, compound concentration 10 uM, replicate 1
compounds and their reported Population Apoptotic (%)
observation type: Population Apoptotic (%)

compound	observation type	unit tag	endpoint result
CN1CCN(Cc2ccc(Nc3ncc(Cl)c(Nc4ccccc4S(=O)(=O)N(C)C)n3)cc2)CC1 [DUBERMATINIB]	Population Apoptotic (%)	%	78
CC(C)NC(=O)N1CC[C@H](NC2=Nc3cc(F)ccc3N(CC(F)F)c3ccc(Cl)cc32)C1	Population Apoptotic (%)	%	47
Cc1cccc(CN2CCN(C(c3ccccc3)c3ccc(Cl)cc3)CC2)c1.Cl.Cl (stereo unspecified)	Population Apoptotic (%)	%	54
Cc1nc(N2CC[C@H](O)C2)ncc1-c1cc(C(F)(F)F)cc2[nH]ncc12	Population Apoptotic (%)	%	60
COC(=O)C1=C(C)NC(C)=C(C(=O)OCCCN2CCC(c3ccccc3)(c3ccccc3)CC2)[C@H]1c1cccc([N+](=O)[O-])c1 [NIGULDIPINE]	Population Apoptotic (%)	%	73
Cc1ccc2c(c1)c1c(n2CCc2ccc(C)nc2)CCN(C)C1 [LATREPIRDINE]	Population Apoptotic (%)	%	47
